B1: Hairpin Ribozyme (parent)
chain: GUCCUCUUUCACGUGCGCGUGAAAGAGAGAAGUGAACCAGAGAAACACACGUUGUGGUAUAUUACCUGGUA

# Variants of: B1
# ASSAY_EXPLANATION: self-cleavage, relative activity (ratio to wild type); higher = more cleavage; co-transcriptional
# self-cleavage listing for each entry below
Output: the number by itself.

Prompt line: Give the measured self-cleavage of GUCCUCUUUCACGUGCGCGUGAAAGAGAGAAGUGAACCAGAGAAACACAUGUUGUGGUAUAUUACCUGGGA .
Response line: 0.178
